assay target: NRAS G12C (Homo sapiens, UniProt P01111+P62937, G12C)
Sequence (P01111 whole entry G12C): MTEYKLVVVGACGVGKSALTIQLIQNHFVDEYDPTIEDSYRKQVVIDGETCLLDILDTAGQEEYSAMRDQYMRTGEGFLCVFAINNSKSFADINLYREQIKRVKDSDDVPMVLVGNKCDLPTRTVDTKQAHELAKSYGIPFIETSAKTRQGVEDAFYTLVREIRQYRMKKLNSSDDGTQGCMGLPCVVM
Sequence (P62937 whole entry): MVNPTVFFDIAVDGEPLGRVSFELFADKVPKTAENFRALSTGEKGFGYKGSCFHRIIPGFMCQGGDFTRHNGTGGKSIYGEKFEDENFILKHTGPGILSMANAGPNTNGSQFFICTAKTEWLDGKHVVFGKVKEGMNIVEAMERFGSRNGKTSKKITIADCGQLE
procedure details: Ras-Raf disruption / FRET / MOA assay (BRAF RBD)
Assay type: biochemical
test context: NRAS G12C; read-out: NRAS G12C FRET data IC50
IC50 for assorted molecules

{"molecule": "CCn1c(-c2cccnc2[C@H](C)OC)c2c3cc(ccc31)-c1cc(O)cc(c1)C[C@H](NC(=O)[C@H](C(C)C)N1CCC3(CN(C(=O)[C@H]4CN4)C3)C1=O)C(=O)N1CCC[C@H](N1)C(=O)OCC(C)(C)C2", "IC50": "< 10 nM"}
{"molecule": "CCn1c(-c2cccnc2[C@H](C)OC)c2c3cc(ccc31)-c1cc(O)cc(c1)C[C@H](NC(=O)[C@H](C(C)C)N1CC[C@]3(CCN(C(=O)[C@H]4CN4)C3)C1=O)C(=O)N1CCC[C@H](N1)C(=O)OCC(C)(C)C2", "IC50": "< 10 nM"}
{"molecule": "CCn1c(-c2cccnc2[C@H](C)OC)c2c3cc(ccc31)-c1csc(n1)C[C@H](NC(=O)[C@H](C(C)C)N(C)C(=O)N1CCC[C@H](N(C)C(=O)[C@@H]3CN3)C1)C(=O)N1CCC[C@H](N1)C(=O)OCC(C)(C)C2 (atropisomer, axis not shown)", "IC50": "100 to 1000 nM"}
{"molecule": "CCn1c(-c2cccnc2[C@H](C)OC)c2c3cc(ccc31)-c1cc(O)cc(c1)C[C@H](NC(=O)[C@H](C1CCCC1)N1CC[C@]3(CCN(C(=O)[C@H]4CN4)C3)C1=O)C(=O)N1CCC[C@H](N1)C(=O)OCC(C)(C)C2", "IC50": "< 10 nM"}
{"molecule": "CCn1c(-c2cccnc2[C@H](C)OC)c2c3cc(ccc31)-c1cc(O)cc(c1)C[C@H](NC(=O)[C@H](C(C)C)N(C)C(=O)CN(C)S(=O)(=O)[C@H]1CN1C)C(=O)N1CCC[C@H](N1)C(=O)OCC(C)(C)C2 (single isomer, unassigned)", "IC50": "10 to 100 nM"}
{"molecule": "CCn1c(-c2cccnc2[C@H](C)OC)c2c3cc(ccc31)-c1cc(O)cc(c1)C[C@H](NC(=O)[C@H](C(C)C)N(C)C(=O)[C@H]1C[C@H](NC(=O)[C@H]3CN3)C1)C(=O)N1CCC[C@H](N1)C(=O)OCC(C)(C)C2", "IC50": "10 to 100 nM"}
{"molecule": "CCn1c(-c2cccnc2[C@H](C)OC)c2c3cc(ccc31)-c1csc(n1)C[C@H](NC(=O)[C@H](C(C)C)N(C)C(=O)N1CCN(C(=O)[C@@H]3CN3)[C@@H](C)C1)C(=O)N1CCC[C@H](N1)C(=O)OCC(C)(C)C2", "IC50": "10 to 100 nM"}
{"molecule": "CCn1c(-c2cccnc2[C@H](C)OC)c2c3cc(ccc31)-c1cc(O)cc(c1)C[C@H](NC(=O)[C@H](C(C)C)N(C)C(=O)N1CCN(C(=O)[C@@H]3CN3)CC1=O)C(=O)N1CCC[C@H](N1)C(=O)OCC(C)(C)C2 (atropisomer, axis not shown)", "IC50": "10 to 100 nM"}
